Examples of variants with documented protein stability index follow.
B1: OR10K2 (parent)
chain: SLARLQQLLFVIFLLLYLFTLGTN

variants of: B1; experiment: protein stability index of a GFP-peptide fusion (GPS, HEK-293T) (PSI 1-6); higher = more stable; settings: c terminus: a fixed tail appended;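 also: lentivirally expressed fusions sorted by FACS into six bins by GFP to DsRed ratio, PSI derived from sequencing read proportions per bin multiplied by bin number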
API note: the answer field is a bare number with no unit suffix.

Consider the following illustrative entries.
> print(dat)
                     sequenceentry  observedmeasurement
1   SLAWLQQLLFVIFLLLYLFTLGTN [R4W]                 2.28
2   SLARLQQMLFVIFLLLYLFTLGTN [L8M]                 3.83
3  SLARLQQLLFVIFLLTYLFTLGTN [L16T]                 3.42
4  SLARLQQLLFPIFLLLYLFTLGTN [V11P]                 2.94
5   SLQRLQQLLFVIFLLLYLFTLGTN [A3Q]                 3.09

Fill blank: measured protein stability index of the variant SLARLQQLLFVIFLLLYDFTLGTN [L18D] is ____. 1.64

Fill blank: measured protein stability index of the variant SLARLQQLLFVIFHLLYLFTLGTN [L14H] is ____. 2.31

Fill blank: measured protein stability index of the variant SLARLQHLLFVIFLLLYLFTLGTN [Q7H] is ____. 1.9

Fill blank: measured protein stability index of the variant SLARLQQLLFVIFLLLYLFMLGTN [T20M] is ____. 1.29
